# Assay System: T1, 4H3697-AA
# T1 chain: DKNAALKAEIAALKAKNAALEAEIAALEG
# Procedure Summary: two-hybrid library CCmax;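 further: natural log of median RNA to DNA barcode read ratio; higher means stronger binding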
# Condition Notes: mean of both orientations
Readout Name: interaction score

Task: For the binder shown here, DEIAALEAKIAALKAENAALEAENAALKG [4H340-AA] , give the reported interaction score.
Result: -1.98

Task: Repeat for the following binder: DEIAALEAENAALEAKIAALKAENAALEG [4H171-AA]
Result: -0.767

Task: Repeat for the following binder: DKNAALKAEIAALEAKIAALKAKNAALEG [4H3631-AA]
Result: -1.62

Task: Repeat for the following binder: DENAALEAKIAALKAKIAALKAENAALKG [4H1388-AA]
Result: -1.77

Task: Repeat for the following binder: DENAALKAKIAALKAEIAALEAKNAALKG [4H1864-AA]
Result: -1.57

Task: Repeat for the following binder: DKNAALEAEIAALKAENAALKAEIAALKG [4H3162-AA]
Result: -1.2

Task: Repeat for the following binder: DKIAALEAEIAALKAKNAALEAEIAALKG [4H2162-AA]
Result: -0.752
